Source of measurements: ChEMBL document CHEMBL3507680

testName: Human HepG2 cell viability assay in 384 well format
Assay type: toxicity, cell-based
Set-up: dose 125 nL, time 70.5 hour; concentration not given beside the values
experimentalParameters: HepG2 cells, read-out: Inhibition
outcomeMeasure: cytotoxicity at 70.5 h (%)
State just the number; it will be interpreted in %.

Below are worked cases with known answers.
Cc1cc(=O)n(C)cc1NC(=O)Cc1cccc(Cl)c1 = -0.253
C[C@]1(O)CCN(Cc2cccnc2)C[C@@H]1Oc1cccc(F)c1 = -2.19
CC(C)CN1CCc2[nH]cnc2C12CCN(C(=O)c1cccnc1)CC2 = 12.4
FC(F)(F)Sc1ccc(NCc2nnc(C3CC3)o2)cc1 = 1.88

Exercise: So what does the record say about cytotoxicity at 70.5 h for CCc1cnc(N2CCC3(CC2)CCN(c2cnn(C)c2)C3=O)nc1 ?
Solution: 31.2

Exercise: Subsequent entry: CC(C)[C@H]1CN(Cc2ccccn2)C[C@@H]1NC(=O)CCS(C)(=O)=O
Solution: -4.06

====

testName: Human HepG2 cell viability assay in 384 well format
Assay type: toxicity, cell-based
Design: dose 125 nL, time 70.5 hour; concentration not given beside the values
experimentalParameters: HepG2 cells, read-out: Inhibition
outcomeMeasure: cytotoxicity at 70.5 h (%)
Record the value in %, omitting the unit from your answer.

Worked set:
Cc1ccsc1C(=O)Nc1cnn(CC(=O)NC2CCCC2)c1 = 23.1
O=C(NCc1ccncc1)c1ccc(Cl)cc1F = 4.94
CCCN1CCCn2nc(CNS(=O)(=O)c3cnn(CC)c3)cc2C1 = -3.06
O=C(c1ccnnc1)N1C[C@@H]2COC[C@]2(COCC2CC2)C1 = -7.55
Cc1ccc2oc(=O)n(CCC(=O)N3CCC4(CN(C)C(=O)O4)C3)c2c1 (configuration not stated) = -1.59

Exercise: Report cytotoxicity at 70.5 h for Cc1ccc(-c2cc(CNC(=O)N3CCOC(C)C3)on2)cc1 (configuration not stated) please.
Solution: -6.72

Exercise: Can you handle CCC(NCc1ccccc1Cl)c1ccccc1OCC(=O)NC (configuration not stated) next?
Solution: -3.07

Exercise: Cc1cccc(NC(=O)N2CCN(Cc3noc(C4CC4)n3)CC2)c1 ?
Solution: 2.6

Exercise: Repeat for the following compound: O=S1(=O)C[C@@H]2[C@H](C1)N(S(=O)(=O)N1CCCC1)CCN2Cc1ccccc1
Solution: -5.47

Exercise: Repeat with CC(C)N1CCCC(C(=O)N2CCN(c3nsc4ccccc34)CC2)C1 (configuration not stated)
Solution: 1.52

Exercise: Okay, and CN1CCN(c2ncc3c(=O)n(-c4cccc(F)c4)c(=O)[nH]c3n2)CC1 ?
Solution: -12.6

Exercise: And what about the compound Cc1cc(-c2n[nH]c3c2CN(S(=O)(=O)c2ccsc2)CC3)c(C)o1 ?
Solution: -9.27

Exercise: What about CCc1nnc2n1CCN(C(=O)CN(C)C1CC1)C2 ?
Solution: -0.0438

Exercise: Another compound to check: CC(C)CN1C(=O)CC[C@H]2CN(C(=O)Cn3ccccc3=O)CC[C@H]21
Solution: -0.419

Exercise: // next record Cn1cccc1CNCc1nnc2n1CCCC2C(F)(F)F (configuration not stated)
Solution: -5.37

Exercise: Moving on to the next compound: CCO[C@H]1C[C@@H](O)C12CCN(C1CCN(c3ccccc3C)CC1)CC2
Solution: 3.61

Exercise: Lookup COc1ncccc1NC(=O)N1CCCC(CNC(=O)OC(C)(C)C)C1 (configuration not stated)
Solution: -6.55

Exercise: Now try Cn1cccc1C(=O)N1CCC2(CC1)CN(c1ccccn1)CCO2 .
Solution: -5.53

Exercise: Could you do the same for Cc1cc(N2CCN(C(=O)CCc3scnc3C)CC2)nc(N)n1 , please?
Solution: 18.7

Exercise: # iterate: Cc1nc(CN2CCCCC2CCc2cccs2)co1 (configuration not stated)
Solution: -9.07

Exercise: Queued: COc1ccccc1CN1C(=O)O[C@@H]2CN(c3nc(C)cnc3C)C[C@@H]21
Solution: -3.32

Exercise: # repeat for COc1ccnc(N2CCC3(CCCN(C(C)C)C3=O)C2)n1 (configuration not stated)
Solution: -1.71

Exercise: Try this compound too: Cc1cc(C)n(CC(=O)N2CCCC2c2cc3cccnc3[nH]2)n1 (configuration not stated)
Solution: 2.7

Exercise: Try this compound next: CN1CCN(C2COC3(CCN(CC4CC4)CC3)C2)CC1 (configuration not stated)
Solution: 0.151
